Reference source: patent US10399940B2

Target: F508delCFTR (Homo sapiens, UniProt P13569, DEL508-508)
Construct: expressed in transfected cells; host or cells: CFBE41o- (human lung derived epithelial cell line), doxycycline-inducible expression
Sequence (P13569 with tags, fused parts or gaps DEL508-508): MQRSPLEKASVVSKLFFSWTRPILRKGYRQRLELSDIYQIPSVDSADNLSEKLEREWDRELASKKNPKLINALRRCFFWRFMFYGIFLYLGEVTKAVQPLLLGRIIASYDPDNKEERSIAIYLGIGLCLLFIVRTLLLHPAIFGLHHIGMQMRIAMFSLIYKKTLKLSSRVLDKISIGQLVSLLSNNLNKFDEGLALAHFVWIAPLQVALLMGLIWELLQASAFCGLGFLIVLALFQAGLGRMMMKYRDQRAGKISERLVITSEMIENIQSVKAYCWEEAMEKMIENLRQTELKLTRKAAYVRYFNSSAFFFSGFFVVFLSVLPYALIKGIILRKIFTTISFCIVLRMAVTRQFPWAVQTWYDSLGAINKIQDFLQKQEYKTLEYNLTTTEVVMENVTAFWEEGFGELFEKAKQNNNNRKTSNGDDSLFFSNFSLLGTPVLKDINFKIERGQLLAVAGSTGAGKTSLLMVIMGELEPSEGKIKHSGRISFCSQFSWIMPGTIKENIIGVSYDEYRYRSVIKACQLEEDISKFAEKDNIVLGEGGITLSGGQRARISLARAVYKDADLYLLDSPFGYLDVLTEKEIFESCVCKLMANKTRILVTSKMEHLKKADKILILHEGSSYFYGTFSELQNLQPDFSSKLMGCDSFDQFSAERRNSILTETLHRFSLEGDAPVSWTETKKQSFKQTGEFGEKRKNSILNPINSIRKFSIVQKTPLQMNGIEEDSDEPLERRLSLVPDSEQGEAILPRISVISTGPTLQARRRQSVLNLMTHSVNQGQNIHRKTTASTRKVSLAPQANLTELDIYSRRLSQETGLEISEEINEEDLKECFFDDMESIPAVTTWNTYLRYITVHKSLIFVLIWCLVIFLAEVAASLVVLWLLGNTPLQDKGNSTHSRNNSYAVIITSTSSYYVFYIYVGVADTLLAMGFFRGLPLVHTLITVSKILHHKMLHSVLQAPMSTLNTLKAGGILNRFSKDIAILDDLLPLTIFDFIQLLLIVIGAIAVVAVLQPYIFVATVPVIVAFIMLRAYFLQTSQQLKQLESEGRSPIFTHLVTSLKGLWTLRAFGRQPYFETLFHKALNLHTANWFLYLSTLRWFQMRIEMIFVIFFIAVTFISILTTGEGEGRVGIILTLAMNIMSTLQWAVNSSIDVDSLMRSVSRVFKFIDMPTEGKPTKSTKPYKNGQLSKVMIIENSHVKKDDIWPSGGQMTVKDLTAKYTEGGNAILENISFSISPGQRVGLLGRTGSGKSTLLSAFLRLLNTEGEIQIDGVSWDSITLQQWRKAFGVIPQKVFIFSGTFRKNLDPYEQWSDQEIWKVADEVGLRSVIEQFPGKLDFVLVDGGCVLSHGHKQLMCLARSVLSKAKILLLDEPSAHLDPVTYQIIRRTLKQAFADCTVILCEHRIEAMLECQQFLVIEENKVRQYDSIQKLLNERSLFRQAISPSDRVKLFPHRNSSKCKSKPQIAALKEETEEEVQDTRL
Assay: Cell Surface Expression-Horse Radish Peroxidase (CSE-HRP) assay
Type: cell-based
Conditions: CFBE41o-F508delCFTR-HRP cells; test compound without co-corrector; 18-24 hours at 33° C.; read-out: EC50 (without co-corrector)
pEC50: −log10 of the molar value.
assay_endpoint: pEC50

Here are 3 molecules together with their reported answers.
COc1ccc(C(F)(F)F)cc1CO[C@H]1[C@H](C(C)(C)C)[C@@H](C(=O)O)N(C(=O)OC(C)C)[C@H]1c1cccnc1OC(C)C	5.00 to 6.00
COc1ncc(-c2ccc(F)cc2F)cc1CO[C@H]1[C@H](C(C)(C)C)[C@@H](C(=O)O)N(C(=O)OC(C)C)[C@H]1c1ccccc1	> 6.00
COc1ccc(C(F)(F)F)cc1[C@H](C)CO[C@H]1[C@H](C(C)(C)C)[C@@H](C(=O)O)N(C(=O)[C@@H]2CCCCO2)[C@H]1c1ccccc1C	> 6.00

Give a short answer stating reported pEC50 for COc1ncc(N2CCCC2)cc1CO[C@H]1[C@H](C(C)(C)C)[C@@H](C(=O)O)N(C(=O)C2CCCCC2)[C@H]1c1ccccc1F .
5.00 to 6.00
